Experiment: Primary qHTS Assay for Foot and Mouth Disease Virus Antivirals against NCGC Sytravon and CBC Compound Libraries: Renilla Luciferase Signal; further: nearly all actives have a fitted effect of over 55% in size
Conditions: FMDV replicon cells; series mostly up to 57.5 µM
Hit rate of the full screen: of about 120,000 compounds, about 370 (0.31%) were called active. Not shown: some 4% with an inconclusive outcome. The call rests on the fitted dose curve. For the sample, actives were picked, then their nearest neighbours and some compounds at random.
Outcome codes: label 1 = active, label 0 = inactive

INSERT INTO assay_data (compound, class_assignment) VALUES
  ('O=C(NCc1cccs1)C1CCN(c2nccn3nc(-c4ccccc4)cc23)CC1', 'label 0'),
  ('COC1CC(OC2CCC3(C=O)[C@H]4CCC5(C)C(C6=CC(=O)OC6)CCC5(O)[C@@H]4CCC3(O)C2)OC(C)C1O (stereo partly specified)', 'label 1'),
  ('Cc1c(C)[n+](=O)c2cc(F)c(F)cc2n1[O-]', 'label 0'),
  ('CCCN(CC(=O)Nc1cccc(C(=O)NC2CC2)c1)Cc1nnc(-c2cccs2)o1', 'label 0'),
  ('O=C(NCc1cccnc1)C(=O)NCC(c1cccnc1)N1CCN(c2ccccc2)CC1 (stereo unspecified)', 'label 0'),
  ('COc1ccc(-c2c(C)c3ccc(OS(C)(=O)=O)cc3oc2=O)cc1', 'label 1'),
  ('CCOc1cccc2c(C)nc(Nc3nc(CSc4ccc(C)cc4)cc(=O)[nH]3)nc12', 'label 0'),
  ('Cn1c(=O)c2nc(SCC(=O)NCc3ccc(Cl)cc3)n(C)c2n(C)c1=O', 'label 0'),
  ('O=C(COc1ncnc2ccccc12)Nc1ccccc1Cl', 'label 0'),
  ('CCCCNC(=O)c1cccc(N)c1', 'label 0'),
  ('CN(C)CCNC(C(=O)O)c1c[nH]c2cc(F)ccc12 (stereo unspecified)', 'label 0'),
  ('NS(=O)(=O)c1ccc(NC(=O)COc2ncnc3ccc(Br)cc23)cc1', 'label 0'),
  ('CCCNC(=O)c1ccc(NC(=O)CCc2ccccc2)cc1', 'label 0'),
  ('COc1ccc(-c2c(C)oc3cc(OC)ccc3c2=O)cc1', 'label 0'),
  ('CC(=O)Nc1ccc2oc(-c3cncc(Br)c3)nc2c1', 'label 0'),
  ('Cc1cccc(OCCn2cc(S(=O)(=O)N3CCCC3)ccc2=O)c1', 'label 0'),
  ('COc1ccc(-c2c(C)c3ccc(O)c(C)c3oc2=O)cc1', 'label 0'),
  ('COc1ccc(CNC(=O)NCc2noc3ccc(C)cc23)cc1', 'label 0'),
  ('CC(C)Cn1c(=O)c2ccccc2n2c(SCC(=O)Nc3ccc(F)cc3F)nnc12', 'label 0'),
  ('COc1ccc(CSc2nnc(C3CC3)n2C2CC2)cc1F', 'label 0'),
  ('CC(Sc1ccc2c(c1)OCCCO2)C(=O)O (stereo unspecified)', 'label 0');
